Source of measurements: ChEMBL document CHEMBL1124891

Organism: Oryctolagus cuniculus
Assay: Tested for the concentration that cause 50% inhibition of the maximum aggregation with rabbit platelet-rich plasma induced by 2.5 x 10 E -6 M of U-46619
Format: functional
Kindly state IC50 for each of the entries shown.

Consider the following illustrative entries.
structure notation: O=C(O)COc1ccc(CCNS(=O)(=O)c2ccccc2)cc1
IC50: 7.1 µM
--
structure notation: COc1ccc(S(=O)(=O)NCCCCc2cc(S(=O)(=O)O)c3ccc(C(C)C)ccc2-3)cc1
IC50: 64 µM
--
structure notation: CC(C)c1ccc2c(/C=C/C(=O)O)cc(CCCCNS(=O)(=O)c3ccccc3)c-2cc1
IC50: > 100 µM
--
structure notation: CC(C)c1ccc2c(CCCCCNS(=O)(=O)c3ccccc3)cc(C(=O)O)c-2cc1
IC50: > 100 µM

IN: Any idea what its IC50 is? The molecule is CC(C)c1ccc2c(CCCCNS(=O)(=O)c3ccccc3)cc(CC(=O)O)c-2cc1
OUT: > 100 µM
